Cited source: patent US20080114047A1

Counter-ions that a name gives are not always drawn.
QUANTITY_MEASURED: melting point

>>> df
                                   compound  recorded_result
0  Cl.Cl.N=C(N)c1ccc(OCCCCOc2cccc(-c3cc4cc(C(=N)N)ccc4o3)c2)cc1    284 to 286 °C

Measured melting point of CONC(=N)c1ccc2oc(CCCc3cc4cc(C(=N)NOC)ccc4o3)cc2c1 (as salt: HCl) : 89 to 90 °C (dec.)

* * *

Counter-ions that a name gives are not always drawn.
QUANTITY_MEASURED: melting point

>>> print(df.to_string())
                                   compound  quantity_measured       recorded_result
0  Cl.Cl.c1cc(OCCCCOc2ccc(C3=NCCN3)cc2)cc(-c2cc3ccc(C4=NCCN4)cc3o2)c1 [Compound 61]      melting point         198 to 200 °C
1  N=C(NO)c1ccc2cc(CCCCCc3cc4ccc(C(=N)NO)cc4o3)oc2c1 (as salt: HCl) [Compound 184]      melting point         220 °C (dec.)
2  CONC(=N)c1ccc2cc(CCCCCc3cc4ccc(C(=N)NOC)cc4o3)oc2c1 (as salt: HCl) [Compound 187]      melting point  230 to 231 °C (dec.)

Query compound follows.
Measured melting point of Cl.Cl.c1cc(OCCCCOc2ccc(C3=NCCN3)cc2)cc(-c2cc3cc(C4=NCCN4)ccc3o2)c1 [Compound 37] : 190 to 195 °C

* * *

tested on: Plasmodium falciparum; assay: Anti-protozoan data: P. falcip. IC50; assay type: cell-based; conditions: Tables VI(a), VI(c), read-out: P. falcip. IC50
QUANTITY_MEASURED: IC50 (nM)
Give the value in nM but do not write nM after it.

>>> df
                                   compound  quantity_measured  recorded_result
0  Cl.Cl.N=C(N)c1ccc(OCCCCOc2cccc(-c3cc4ccc(C(=N)N)cc4o3)c2)cc1 [Compound 59, dihydrochloride]               IC50              321
1  CC(C)NC(=N)c1ccc(OCCCCCOc2cccc(-c3cc4cc(C(=N)NC(C)C)ccc4o3)c2)cc1.Cl.Cl [Compound 39, dihydrochloride]               IC50              123

Query compound follows.
Measured IC50 of c1cc(OCCCCCCOc2ccc(C3=NCCN3)cc2)cc(-c2cc3cc(C4=NCCN4)ccc3o2)c1 [Compound 43] : 49.4

* * *

system: Trypanosoma brucei rhodesiense; experiment: Anti-protozoan data: T.b.r. IC50; format: cell-based; conditions: Tables VI(a), VI(c), read-out: T.b.r. IC50
# IC50 values compiled below
Give the value in nM but do not write nM after it.

Example entries and their recorded answers appear below.
>>> df
                                   compound  recorded_result
0  N=C(NO)c1ccc2oc(CCCCc3cc4cc(C(=N)NO)ccc4o3)cc2c1             4870
1  Cl.Cl.N=C(N)c1ccc(OCCCCOc2cccc(-c3cc4cc(C(=N)N)ccc4o3)c2)cc1 [Compound 35, dihydrochloride]              779
2  Cl.Cl.c1cc(OCCCCCOc2ccc(C3=NCCN3)cc2)cc(-c2cc3ccc(C4=NCCN4)cc3o2)c1 [Compound 64, dihydrochloride]              442
3  CC(C)NC(=N)c1ccc(OCCCCCCOc2ccc(-c3cc4ccc(C(=N)NC(C)C)cc4o3)cc2)cc1.Cl.Cl [Compound 78, dihydrochloride]              884
4  Cl.Cl.c1cc(C2=NCCN2)ccc1OCCCOc1ccc(-c2cc3ccc(C4=NCCN4)cc3o2)cc1 [Compound 70, dihydrochloride]              144

Measured IC50 of CC(C)NC(=N)c1ccc(OCCCCOc2ccc(-c3cc4cc(C(=N)NC(C)C)ccc4o3)cc2)cc1.Cl.Cl [Compound 48, dihydrochloride] : 1110

Measured IC50 of Cl.Cl.c1cc(C2=NCCN2)ccc1OCCCCCCOc1ccc(-c2cc3ccc(C4=NCCN4)cc3o2)cc1 [Compound 79, dihydrochloride] : 224

Measured IC50 of Cl.Cl.N=C(N)c1ccc2oc(CCc3cc4cc(C(=N)N)ccc4o3)cc2c1 [Compound 8, dihydrochloride] : 7.9

* * *

test system: Plasmodium falciparum; experiment: Anti-protozoan data: P. falcip. IC50; format: cell-based; details: Tables VI(a), VI(c), read-out: P. falcip. IC50
pIC50: −log10 of the molar value. Where a name gives a salt, the structure may show the parent alone.
Classify by measured pIC50: True if it is equal to or exceeds 7, False if it is smaller.

>>> df
                                   compound  classification
0  CC(C)NC(=N)c1ccc(OCCCCOc2cccc(-c3cc4ccc(C(=N)NC(C)C)cc4o3)c2)cc1.Cl.Cl [Compound 60, dihydrochloride]           False
1  CC(C)NC(=N)c1ccc2oc(CCCCc3cc4cc(C(=N)NC(C)C)ccc4o3)cc2c1 [Compound 21, dihydrochloride]            True
2  Cl.Cl.c1cc(C2=NCCN2)ccc1OCCCCOc1ccc(-c2cc3ccc(C4=NCCN4)cc3o2)cc1 [Compound 73, dihydrochloride]            True
3  Cl.Cl.N=C(N)c1ccc(OCCCCCCOc2ccc(-c3cc4ccc(C(=N)N)cc4o3)cc2)cc1 [Compound 77, dihydrochloride]           False
4  Cl.Cl.c1cc(C2=NCCN2)ccc1OCCCOc1ccc(-c2cc3ccc(C4=NCCN4)cc3o2)cc1 [Compound 70, dihydrochloride]            True

Reported pIC50 at or above 7? Cl.Cl.c1cc(C2=NCCN2)ccc1OCCCCCOc1ccc(-c2cc3cc(C4=NCCN4)ccc3o2)cc1 [Compound 52, dihydrochloride]
True

* * *

system: Mycobacterium tuberculosis; test: Compounds tested against Mycobacterium tuberculosis (MIC90); format: cell-based; settings: read-out: M. tb. MIC90
Field: label. Allowed values: criterion met (MIC90 < 2 µM) or criterion not met (MIC90 >= 2 µM).

Solved entries (count: 2):
>>> print(df.to_string())
                                   compound     classification
0  CC(C)NC(=N)c1ccc(OCCCCOc2ccc(-c3cc4cc(C(=N)NC(C)C)ccc4o3)cc2)cc1.Cl.Cl [Compound 48, dihydrochloride]  criterion not met
1  CC(C)NC(=N)c1ccc(OCCCCCCOc2ccc(-c3cc4cc(C(=N)NC(C)C)ccc4o3)cc2)cc1.Cl.Cl [Compound 54, dihydrochloride]  criterion not met

Would you kindly verify if MIC90 of Cl.Cl.N=C(N)c1ccc(OCCCCOc2ccc(-c3cc4ccc(C(=N)N)cc4o3)cc2)cc1 [Compound 71, dihydrochloride] is strictly less than 2 µM?
criterion met

Would you kindly verify if MIC90 of Cl.Cl.c1cc(C2=NCCN2)ccc1OCCCOc1ccc(-c2cc3ccc(C4=NCCN4)cc3o2)cc1 [Compound 70, dihydrochloride] is strictly less than 2 µM?
criterion met

Would you kindly verify if MIC90 of Cl.Cl.N=C(N)c1ccc(OCCCOc2cccc(-c3cc4ccc(C(=N)N)cc4o3)c2)cc1 [Compound 56, dihydrochloride] is strictly less than 2 µM?
criterion met

Would you kindly verify if MIC90 of CC(C)NC(=N)c1ccc(OCCCOc2cccc(-c3cc4cc(C(=N)NC(C)C)ccc4o3)c2)cc1.Cl.Cl [Compound 33, dihydrochloride] is strictly less than 2 µM?
criterion met

Would you kindly verify if MIC90 of Cl.Cl.c1cc(OCCCCCCOc2ccc(C3=NCCN3)cc2)cc(-c2cc3ccc(C4=NCCN4)cc3o2)c1 [Compound 67, dihydrochloride] is strictly less than 2 µM?
criterion not met

* * *

Where a name gives a salt, the structure may show the parent alone.
QUANTITY_MEASURED: melting point

Example entries and their recorded answers appear below.
                                   molecule  quantity_measured  recorded_result
0  Cl.Cl.c1cc2cc(CCc3cc4ccc(C5=NCCN5)cc4o3)oc2cc1C1=NCCN1      melting point         > 360 °C
1  Cl.Cl.c1cc(C2=NCCN2)ccc1OCCCCCOc1ccc(-c2cc3ccc(C4=NCCN4)cc3o2)cc1      melting point    212 to 215 °C
2  CC(C)NC(=N)c1ccc(OCCCCCCOc2cccc(-c3cc4ccc(C(=N)NC(C)C)cc4o3)c2)cc1.Cl.Cl      melting point    283 to 285 °C

Measured melting point of N=C(NO)c1ccc(OCCCOc2ccc(-c3cc4cc(C(=N)NO)ccc4o3)cc2)cc1 (as salt: HCl) : 204 °C (dec.)

* * *

# pIC50 values compiled below
experiment: in vitro
Bear in mind: pIC50 is minus log10 of a mol/L concentration; give just that figure.

Example entries and their recorded answers appear below.
                                   molecule  recorded_result
0  CC(C)NC(=N)c1ccc(OCCCCCCOc2ccc(-c3cc4cc(C(=N)NC(C)C)ccc4o3)cc2)cc1.Cl.Cl [Compound 54, dihydrochloride]             6.07
1  Cl.Cl.N=C(N)c1ccc(OCCCCOc2ccc(-c3cc4cc(C(=N)N)ccc4o3)cc2)cc1 [Compound 47, dihydrochloride]             5.89
2  N=C(NO)c1ccc(OCCCCCOc2ccc(-c3cc4cc(C(=N)NO)ccc4o3)cc2)cc1 [Compound 183]             5.08

Measured pIC50 of N=C(N)c1cccc(-c2cc3cc(C(=N)N)ccc3o2)c1 [Compound 166] : 4.67

Measured pIC50 of CC(C)NC(=N)c1ccc(OCCCCOc2cccc(-c3cc4cc(C(=N)NC(C)C)ccc4o3)c2)cc1.Cl.Cl [Compound 36, dihydrochloride] : 4.44

Measured pIC50 of Cl.Cl.N=C(N)c1ccc(OCCCCOc2ccc(-c3cc4ccc(C(=N)N)cc4o3)cc2)cc1 [Compound 71, dihydrochloride] : 4.85

Measured pIC50 of N=C(N)c1cccc(-c2cc3ccc(C(=N)N)cc3o2)c1 [Compound 169] : 3.88

Measured pIC50 of c1cc(C2=NCCN2)cc(-c2cc3ccc(C4=NCCN4)cc3o2)c1 [Compound 171] : 4.89

Measured pIC50 of CC(C)NC(=N)c1ccc(OCCCCOc2cccc(-c3cc4ccc(C(=N)NC(C)C)cc4o3)c2)cc1.Cl.Cl [Compound 60, dihydrochloride] : 4.33

Measured pIC50 of CONC(=N)c1ccc2oc(CCCCCc3cc4cc(C(=N)NOC)ccc4o3)cc2c1 [Compound 193] : 4.45

Measured pIC50 of Cl.Cl.c1cc(C2=NCCN2)ccc1OCCCOc1ccc(-c2cc3ccc(C4=NCCN4)cc3o2)cc1 [Compound 70, dihydrochloride] : 4.77
